# Tested on: EKVX NSCLC
# ASSAY_INFO: NCI tumour cell line growth inhibition, 48 h
PROPERTY_NAME: TGI

Q. Record lookup: for EKVX NSCLC, what TGI belongs to CC(C)C1CN1CC(O)Cn1ccnc1[N+](=O)[O-] (stereo not drawn) ?
A. > 100 µM

Q. Lab note: need TGI for `Cc1cccc(C)c1NC(=O)CCC(=O)NNC(=O)c1cc(O)c2ccccc2c1` on EKVX NSCLC, anyone have it?
A. > 100 µM

Q. Query the reported TGI for EKVX NSCLC; item: COC(=O)OC[C@H]1O[C@@H](n2cc(C)c(=O)[nH]c2=O)CC1OC(=O)OC (stereo partly drawn)
A. > 100 µM

----------
# System: SF-268 CNS
# ASSAY_INFO: NCI tumour cell line growth inhibition, 48 h
PROPERTY_NAME: TGI

Q. Given the entry `Cc1ccc(NS(=O)(=O)c2ccc(-c3cnc(C4CC4)o3)cc2)cc1` , report its measured TGI.
A. 21.3 µM

Q. Which TGI is reported for this compound? `COc1c(C2(c3ccc(F)cc3)SCCCS2)c(=O)c1=O`
A. > 100 µM

Q. Request the reported TGI associated with `c1ccc(COc2ccc(C[P+](c3ccccc3)(c3ccccc3)c3ccccc3)cc2)cc1`
A. 14.2 µM

Q. Please report the recorded TGI for CCOC(=O)CC(C)C(C#N)(OP1(=O)OC(c2ccccc2)C(C)N1C)c1ccccc1 (stereo not given) .
A. > 100 µM

Q. Any idea what TGI was measured for `O=C(NNc1nc2cc(F)ccc2n2c(CN3CCOCC3)ccc12)c1ccccc1` ?
A. 2.69 µM

Q. Param item = `CO/N=C(\c1ccccc1)c1cnn(-c2ccccc2)c1N` ; retrieve measured TGI.
A. > 25 µM

Q. // TGI lookup, key: `CCC(=O)Sc1ccccc1C(=O)Nc1ccc(Cl)cc1`
A. 52.9 µM

Q. Name the reported TGI value associated with the compound `COc1cc2c(cc1OC)C(=O)N(c1ccc(O)cc1)C2`
A. > 100 µM

Q. Which TGI value is on record for `CN1CC(c2ccccc2)=Cc2c1ccc(N)c2N=N` ?
A. > 100 µM

Q. Value lookup for TGI; key = O=c1cnn(C2OC(CO)C(O)C(F)C2O)c(=O)[nH]1 (stereo not given)
A. > 100 µM

Q. Name the reported TGI value associated with the compound `CN(CCNC(=O)c1[nH]nc2c1ccc1ccccc12)CCNC(=O)c1[nH]nc2c1ccc1ccccc12`
A. 4.84 µM

Q. Fill in: TGI of N#Cc1c(-c2ccco2)c2c(n(C3OC(CO)C(O)C(O)C3O)c1=S)CCCC2 (stereo not given) is ___
A. > 100 µM

Q. Requested read-out: TGI. Entry: CCCCN(CC)C(=O)C(=O)C1C(=O)Nc2ccccc2S1=O (stereo not given)
A. > 100 µM

Q. # input compound: `CN(NC(=O)c1ccco1)C1=NCCCCN1` ; wanted: its TGI
A. > 100 µM

Q. Item under review: `COc1ccc2c(c1)C(=O)c1c-2c(NCCCN(C)C)nc2ccccc12` . Reported TGI?
A. 4.71 µM

Q. I would be grateful if you could share the reported TGI for `[Cu+2].[Cu+2].[O-]c1ccccc1C=Nc1ccccc1[O-].[O-]c1ccccc1C=Nc1ccccc1[O-]` .
A. 24.2 µM

Q. I would be grateful if you could share the reported TGI for `O=c1[nH]cnc2c1nnn2CCCn1nnc2c(=O)[nH]cnc21` .
A. > 100 µM

Q. Sample `COc1ccc2c(c1O)-c1c(OC)c(OC)cc3c1[C@H](C2)[N+](C)(C)CC3` — what was its TGI?
A. > 100 µM

Q. Which TGI value belongs to `COC(=O)Cc1c([C@@H]2Nc3ccccc3[C@H]2CC(=O)OC)[nH]c2ccccc12` ?
A. > 100 µM

Q. What value of TGI has been reported for the following compound? `O=c1c2cc([N+](=O)[O-])ccc2n2n1Cc1ccccc1CC2`
A. > 100 µM

----------
# Tested on: COLO 205 colon
# ASSAY_INFO: NCI tumour cell line growth inhibition, 48 h; in the data active = GI50 below about 0.43 µM; inactive = the rest
One label from this list, please: class 1 for active, class 0 for inactive

Q. Returns: the outcome recorded for `O=C(CC12CC3CC(CC(C3)C1)C2)NCCOCCOCCNC(=O)c1cc2c(o1)C(=O)c1ccccc1C2=O` in this assay.
A. class 0

Q. Hi team, can someone confirm the assay call for `O=C(NCc1cn(Cc2cccc(Oc3ccccc3)c2)nn1)c1cccnc1Nc1ccccc1` ?
A. class 0

Q. Dear all, I need the recorded test outcome for `Cn1ncc2cc(-c3cnc(N)c(Cl)c3N3CCC4(CCNC4=O)CC3)ccc21` , thank you.
A. class 0

Q. Outcome? `c1ccc2c(c1)O[As](O[As]1Oc3ccccc3O1)O2`
A. class 0

Q. Which result was noted for this compound in the test: `COC[C@H]1C(=O)NCC(=O)N2NCCC[C@H]2C(=O)N(O)[C@H](C)C(=O)O[C@@H](C(C)C)[C@H](NC(=O)[C@](C)(O)[C@]2(O)CC[C@@H](CC(C)C)[C@H](C)O2)C(=O)N2NCCC[C@@H]2C(=O)N1O`
A. class 1

Q. Recorded call for CCN(CC)c1ccc(NC(C(=O)c2ccccc2)c2ccccc2)cc1 (stereo not drawn) ?
A. class 0

Q. Fill in: this test's call for `CCC(=O)Sc1ccccc1C(=O)Nc1ccc(Cl)cc1` is ___
A. class 0

Q. I would be grateful if you could indicate the recorded call for `O=C1C=C(SCCO)C(=O)c2ccccc21` .
A. class 0

----------
# System: RPMI-8226 leukemia
# ASSAY_INFO: NCI tumour cell line growth inhibition, 48 h
PROPERTY_NAME: TGI

Q. Report TGI for `Cc1c(/C=C2\CC/C(=C\c3[nH]c(C(=O)OC(C)(C)C)c(C)c3C)C2=O)[nH]c(C(=O)OC(C)(C)C)c1C` please.
A. > 100 µM

Q. What value of measured TGI is listed for CCOC(C)OCC#CCCBr (stereo unspecified) ?
A. > 100 µM

Q. What does the record list as TGI for `Cc1cccc(C)c1NC(=O)CCC(=O)NNC(=O)c1cc(O)c2ccccc2c1` ?
A. > 100 µM

Q. // returns reported TGI for input `C1=C2SSC3=CC=C(SSc4ccc(s4)SSC4=CC=C(SSC(=C1)S2)S4)S3`
A. > 100 µM

Q. # query: TGI of entry O=C1CCC2(c3ccc(F)cc3)Nc3ccccc3N12 (stereo unspecified)
A. > 100 µM

Q. Given `Cc1cc(-c2ccc(C(=O)C(Cl)(Cl)Cl)[nH]2)on1` , state its recorded TGI.
A. > 100 µM

Q. Can you look up the measured TGI of `N#CI1OC(=O)c2ccccc21` for me?
A. > 100 µM

Q. Can you share its TGI? I mean this compound: CC(C)(C)C1CC[C@H]2c3c([nH]c4ccc(Br)cc34)[C@H]3C(=O)N(c4ccccc4)C(=O)[C@H]3[C@H]2C1 (stereo partly specified)
A. > 100 µM

Q. Endpoint output: TGI of `Cc1oc2ccccc2c(=O)c1Cn1nnc2ccccc21` . Value?
A. > 100 µM

Q. Can you share its TGI? I mean this compound: `Oc1ccc(-c2cc(-c3c(O)cc(O)cc3O)on2)cc1`
A. > 100 µM

Q. Quick one: TGI for `COc1ccc(NC(=S)NN=C(C)c2cccc(C(C)=NNC(=S)Nc3ccc(OC)cc3)n2)cc1` ?
A. > 100 µM

Q. Given the entry OCC(O)COc1ccc(Br)cc1 (stereo unspecified) , report its measured TGI.
A. > 100 µM

Q. Recorded TGI for CN(C)CCC1(C2=CCCC2)CC/C(=C\c2ccc3c(c2)OCO3)C1=O (stereo unspecified) , please?
A. 73.9 µM

Q. // query TGI value for entry `[Cu+2].[Cu+2].[O-]c1ccccc1C=Nc1ccccc1[O-].[O-]c1ccccc1C=Nc1ccccc1[O-]`
A. 54.6 µM

Q. For `OCCN1CCN(CCCN2c3ccccc3Sc3ccc(C(F)(F)F)cc32)CC1` , what is its reported TGI?
A. 4.69 µM

Q. Find the recorded TGI belonging to CCOC(=O)c1nc2c3c(ncn2n1)Oc1c(c(-c2ccccc2)nn1-c1ccccc1)C3c1ccc(OC)c(OC)c1 (stereo unspecified) and report it.
A. > 100 µM

Q. # TGI lookup, item `COc1ccccc1-c1cc2c3c(nc4ccccc42)C(=O)c2cccnc2-c3n1`
A. > 100 µM

Q. Which TGI is reported for this compound? `O=C1C(=O)c2ccc(Br)cc2-c2cc(Br)ccc21`
A. 6.82 µM

Q. Tell me the measured TGI of `O=C(NCc1cn(Cc2cccc(Oc3ccccc3)c2)nn1)c1cccnc1Nc1ccccc1` , please.
A. > 100 µM

Q. Which value of TGI has been reported for CN(C)CC1CCC/C(=C\c2ccc(N(C)C)cc2)C1=O (stereo unspecified) in the records?
A. > 100 µM

Q. Which value of TGI has been reported for N=C(N)/N=C(/C=C/c1ccccc1)CC1OC(=O)c2ccccc21 (stereo unspecified) in the records?
A. > 100 µM

Q. // TGI lookup, key: `O=C1Nc2ccc(Cl)cc2/C1=C\c1c(-c2ccc(F)cc2)nc2ccccn12`
A. 7.86 µM

Q. So what's the measured TGI for this one? CC(NC(=O)c1ccccc1)C(=O)N(Cc1ccccc1)Cc1ccccc1 (stereo unspecified)
A. 45.7 µM

Q. Quick one: TGI for COc1ccc(C2SCC(=O)N2N=C2NC(=O)CC(=O)N2)cc1 (stereo unspecified) ?
A. > 100 µM

Q. Requested field: TGI. Item: `c1ccc2c(c1)O[As](O[As]1Oc3ccccc3O1)O2`
A. 4.61 µM

Q. Can you share its TGI? I mean this compound: COc1ccc(C2CC(c3cc4c(C)c(C(=O)c5ccccc5)oc4cc3O)=Nc3ccccc3S2)cc1OC (stereo unspecified)
A. > 100 µM

Q. Entry under review: O=C(CCN1CCCCC1CCO)Nc1ccc2c(c1)C(=O)c1ccc(NC(=O)CCN3CCCCC3CCO)cc1C2=O (stereo unspecified) . Reported TGI?
A. 31.8 µM

Q. What does the record list as TGI for COc1ccc2nc3ccc(OC)cc3c(S(=O)Cc3ccc([N+](=O)[O-])cc3)c2c1 (stereo unspecified) ?
A. 7.7 µM

Q. Recorded TGI for COc1ccc(C2C3=C(NC(=O)C2C#N)c2ccc4ccccc4c2OCC3)cc1 (stereo unspecified) , please?
A. > 100 µM

Q. Which value of TGI has been reported for COC(=O)C1Cc2c(C)cccc2C1=O (stereo unspecified) in the records?
A. > 100 µM

Q. What value of TGI has been recorded for this entry: `Oc1c(OCc2nnc(CCCCCCCCc3nnc(COc4ccc5ccccc5c4O)n3Nc3ccccc3)n2Nc2ccccc2)ccc2ccccc12`
A. 26.7 µM

Q. Query: TGI; subject: CC(C)(C)C1CCC2c3c([nH]c4ccccc34)C3C(=O)N(c4cc(Br)cc(Br)c4)C(=O)C3C2C1 (stereo unspecified)
A. > 100 µM

Q. What does the record list as TGI for `Brc1c[n+](Cc2ccc3ccccc3c2)cn1Cc1ccc2ccccc2c1` ?
A. 3.06 µM

Q. Any idea what its TGI is? The compound is `O=C1Nc2ccc(F)c3c(OCCO)cc(-c4ccc[nH]4)c1c23`
A. 8.18 µM

Q. # get_value(readout='TGI', item= Cc1c(Cl)ccc2c1NC(=O)C2(O)CC(=O)c1ccc(Cl)cc1Cl (stereo unspecified) )
A. > 50 µM

Q. Sample `CO/C(=N\N=C(/C)C(F)(F)F)c1ccncc1` — what was its TGI?
A. > 100 µM
